organism: Rattus norvegicus; assay: In vitro inhibition of [3H]GABA uptake in rat Hippocampal slices.; type: functional, organism-based
IC50 listing for selected compounds.
metric_name: IC50 (µM)

compound="O=C(O)[C@H]1CCCN(CCOC(c2ccc(Cl)cc2)c2ccc(Cl)cc2)C1 (stereo in doubt; 37)" endpoint_unit=µM quantitative_readout=0.18
compound="O=C(O)[C@H]1CCCN(CCOC(c2ccc(Cl)cc2)c2ccc(Cl)cc2)C1 (stereo in doubt; 36)" endpoint_unit=µM quantitative_readout=14
